Biological target: T1, natriuretic peptide receptor-B (human)
T1 chain: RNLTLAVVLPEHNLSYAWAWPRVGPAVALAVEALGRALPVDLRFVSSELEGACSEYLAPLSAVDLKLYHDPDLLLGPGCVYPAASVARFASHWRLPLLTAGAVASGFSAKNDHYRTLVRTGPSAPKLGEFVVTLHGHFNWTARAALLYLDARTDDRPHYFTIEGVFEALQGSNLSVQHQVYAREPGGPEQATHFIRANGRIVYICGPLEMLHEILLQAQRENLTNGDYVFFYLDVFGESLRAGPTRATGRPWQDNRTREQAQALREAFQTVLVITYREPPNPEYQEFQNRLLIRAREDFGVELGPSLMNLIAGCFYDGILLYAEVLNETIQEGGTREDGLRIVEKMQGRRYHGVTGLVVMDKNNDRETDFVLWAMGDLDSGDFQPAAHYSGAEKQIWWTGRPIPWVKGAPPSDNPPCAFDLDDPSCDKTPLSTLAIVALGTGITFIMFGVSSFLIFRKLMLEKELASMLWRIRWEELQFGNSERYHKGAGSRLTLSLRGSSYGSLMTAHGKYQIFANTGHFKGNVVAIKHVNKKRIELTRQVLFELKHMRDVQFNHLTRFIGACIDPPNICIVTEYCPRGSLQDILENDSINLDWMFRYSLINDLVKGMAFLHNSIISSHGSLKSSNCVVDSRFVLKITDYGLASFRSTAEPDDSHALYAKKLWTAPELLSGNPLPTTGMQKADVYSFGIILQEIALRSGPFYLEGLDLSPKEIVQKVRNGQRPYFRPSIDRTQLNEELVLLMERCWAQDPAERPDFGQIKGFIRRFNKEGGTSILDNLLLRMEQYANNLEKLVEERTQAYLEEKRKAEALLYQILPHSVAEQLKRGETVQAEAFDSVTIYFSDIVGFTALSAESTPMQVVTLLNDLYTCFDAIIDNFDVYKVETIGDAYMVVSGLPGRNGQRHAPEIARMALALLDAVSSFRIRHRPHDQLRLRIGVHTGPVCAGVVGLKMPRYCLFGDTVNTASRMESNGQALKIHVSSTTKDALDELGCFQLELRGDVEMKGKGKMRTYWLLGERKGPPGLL
Assay: cell-based or functional assay
Numbered stars: 1 amine (or outer) side, 2 acyl side, 3 side chain; on linkers, the order of the positions; unused ones are H or OH. Square brackets hold non-standard residues; d marks the D form. Ends that are not written are not given here. * marks the point of attachment. dap(6263)2 = (R)-2-amino-3-(bis(2-aminoethyl)amino)propanoic acid, NCCN(CCN[*:3])C[C@@H](N[*:1])C(=O)[*:2]; Pro(trans-4-NH2) = O=C([C@@H]1C[C@@H](N[*:3])CN1[*:1])[*:2]; Sni = (S)-nipecotic acid, O=C([C@H]1CCCN([*:1])C1)[*:2]; Oic = O=C(O)[C@@H]1C[C@@H]2CCCC[C@@H]2N1; Hyp = O=C(O)[C@@H]1C[C@@H](O)CN1; tBuAla = CC(C)(C)C[C@H](N)C(=O)O; Aoc(2) = CCCCCC[C@H](N)C(=O)O; NMeL = CN[C@@H](CC(C)C)C(=O)O; Octanoyl = CCCCCCCC(=O)*; Thz = O=C(O)[C@@H]1CSCN1; dDap = NC[C@@H](N)C(=O)O; Che = not defined here; Hexanoyl = CCCCCC(=O)*; leu = not defined here; Occ = octanoic acid

{"binder": "Octanoyl-[dA]F[dDap]LPLDRI-NH2 [JAL-1020]", "EC50 group, cGMP in GTM-3 cells": "≤ 5 µM"}
{"binder": "Hexanoyl-G[dA]FGLKLDRISG-NH2 [JAL-0539]", "EC50 group, cGMP in GTM-3 cells": "≤ 5 µM"}
{"binder": "Octanoyl-[Sni]X[leu]L[Hyp][NMeL]DRI-NH2 (not fully specified (some residues); printed as Occ-Sni-Pcf-leu-Leu-Hyp-Nml-Asp-Arg-Ile-NH2) [JAL-1493]", "EC50 group, cGMP in GTM-3 cells": "≤ 1 µM"}
{"binder": "Octanoyl-[dA]F[dR]L[Hyp][Oic]DRI-NH2 [JAL-1364]", "EC50 group, cGMP in GTM-3 cells": "≤ 5 µM"}
{"binder": "Octanoyl-[Aoc(2)][Sni]FLL[Hyp][NMeL]DRI-NH2 (not fully specified (some residues); printed as Occ-Hgl-Sni-Phe-leu-Leu-Hyp-Nml-Asp-Arg-Ile-NH2) [JAL-1807]", "EC50 group, cGMP in GTM-3 cells": "≤ 15 µM"}
{"binder": "Hexanoyl-G[dA]FGLKLDRISA-NH2 [JAL-0538]", "EC50 group, cGMP in GTM-3 cells": "≤ 5 µM"}
{"binder": "Octanoyl-[dA]F[dL]L[Hyp]LDRI-NH2 [JAL-1026]", "EC50 group, cGMP in GTM-3 cells": "≤ 5 µM"}
{"binder": "[Occ][Sni]F[leu]L[Hyp][NMeL]D[Thz][Che] (reading uncertain; also: printed as Occ-Sni-Phe-leu-Leu-Hyp-Nml-Asp-Eaz-Che) [JAL-1638]", "EC50 group, cGMP in GTM-3 cells": "≤ 1 µM"}
{"binder": "Octanoyl-[Sni]FLL[Hyp][tBuAla]DP[Che] (not fully specified (some residues); printed as Occ-Sni-Phe-leu-Leu-Hyp-Npg-Asp-Pro-Che; reading uncertain) [JAL-1595]", "EC50 group, cGMP in GTM-3 cells": "≤ 1 µM"}
{"binder": "[Occ][Sni]F[dap(6263)2]L[Pro(trans-4-NH2)][NMeL]DRI-NH2 [JAL-1370]", "EC50 group, cGMP in GTM-3 cells": "≤ 5 µM"}
